Biological target: HLA-B*18:01
Test: IEDB peptide-MHC binding, purified MHC/competitive/fluorescence; filed as Kd, often an IC50 or EC50 that approximates it; bounds were set here for any values at or beyond the usual limits of such assays
Conditions: source organism: Human immunodeficiency virus 1
Measurement Name: Kd (nM)
One number for each entry, in nM.

Give a short answer stating reported Kd for RSLYNTVATLY . 76.3

====

Target: HLA-A*02:03
Experiment: IEDB peptide-MHC binding, purified MHC/competitive/radioactivity; filed as Kd, often an IC50 or EC50 that approximates it; bounds were set here for any values at or beyond the usual limits of such assays
Conditions: source organism: Mammarenavirus guanaritoense
Measurement Name: Kd (nM)
Answers are plain numbers, in nM.

Give a short answer stating reported Kd for TLVDLCFWS . 523

====

Biological target: HLA-A*02:16
Assay: IEDB peptide-MHC binding, purified MHC/direct/fluorescence; filed as Kd, often an IC50 or EC50 that approximates it; bounds were set here for any values at or beyond the usual limits of such assays
Details: source organism: Bacillus anthracis str. 'Ames Ancestor'
Measurement Name: Kd

Give a short answer stating reported Kd for TKAGMAQYL . ≥ 20 µM

====

Target: HLA-B*40:01
Experiment: IEDB peptide-MHC binding, purified MHC/competitive/radioactivity; filed as Kd, often an IC50 or EC50 that approximates it; bounds were set here for any values at or beyond the usual limits of such assays
Conditions: source organism: SARS coronavirus Tor2
Measurement Name: pKd
Answers are plain numbers, as −log10 of the molar value.

{"columns": ["Primary Sequence", "Measurement Target", "pKd"],
 "data": [
  ["FENKTTLPV", "HLA-B*40:01", 6.94]
]}

The following sequences each have a reported value; give each one's pKd.
1. QEIQLLAAV
2. EEVVENPTI

7.58
5.56

====

Molecular target: HLA-B*40:01
Test: IEDB peptide-MHC binding, purified MHC/direct/fluorescence; filed as Kd, often an IC50 or EC50 that approximates it; bounds were set here for any values at or beyond the usual limits of such assays
Conditions: source organism: Influenza A virus (A/duck/Vietnam/15/2003(H5N1))
Measurement Name: Kd

Recall the reported Kd of SHEGEGIPL on HLA-B*40:01 and write it down. ≥ 20 µM

====

Target: HLA-A*31:01
Assay: IEDB peptide-MHC binding, purified MHC/competitive/fluorescence; filed as Kd, often an IC50 or EC50 that approximates it; bounds were set here for any values at or beyond the usual limits of such assays
Details: source organism: Canarypox virus
Measurement Name: Kd (nM)
Give bare numbers, in nM.

Recall the reported Kd of GTIIVHPNK on HLA-A*31:01 and write it down. 101

====

Biological target: HLA-B*44:02
Assay: IEDB peptide-MHC binding, purified MHC/direct/fluorescence; filed as Kd, often an IC50 or EC50 that approximates it; bounds were set here for any values at or beyond the usual limits of such assays
Conditions: source organism: Influenza A virus (A/Hong Kong/516/97(H5N1))
pKd: −log10 of the molar value.
Measurement Name: pKd

Give a short answer stating reported pKd for SYINRTGTF . ≤ 4.70

====

Target: HLA-A*23:01
Experiment: IEDB peptide-MHC binding, purified MHC/competitive/radioactivity; filed as Kd, often an IC50 or EC50 that approximates it; bounds were set here for any values at or beyond the usual limits of such assays
Settings: source organism: Triticum aestivum
Measurement Name: Kd

Recall the reported Kd of QYPSGQGSF on HLA-A*23:01 and write it down. ≥ 35.7 µM

====

Biological target: HLA-B*08:02
Experiment: IEDB peptide-MHC binding, purified MHC/direct/fluorescence; filed as Kd, often an IC50 or EC50 that approximates it; bounds were set here for any values at or beyond the usual limits of such assays
Conditions: source organism: Ravn virus - Ravn, Kenya, 1987
Measurement Name: Kd

Give a short answer stating reported Kd for LEHGLYPQL . ≥ 20 µM

====

Biological target: HLA-A*02:19
Assay: IEDB peptide-MHC binding, purified MHC/direct/fluorescence; filed as Kd, often an IC50 or EC50 that approximates it; bounds were set here for any values at or beyond the usual limits of such assays
Conditions: source organism: Hantaanvirus CGRn93P8
Measurement Name: pKd
Answers are plain numbers, as −log10 of the molar value.

Give a short answer stating reported pKd for TLAQSLIDV . 8.22

====

Kindly supply the reported Kd values for the records listed here.
Molecular target: HLA-A*68:01
Test: IEDB peptide-MHC binding, purified MHC/competitive/radioactivity; filed as Kd, often an IC50 or EC50 that approximates it; bounds were set here for any values at or beyond the usual limits of such assays
Settings: source organism: Dengue virus 3 Martinique/1243/1999
Numbers only, in nM.

Please review the entries below; each comes with its answer.
{"columns": ["Primary Sequence", "Kd / nM"],
 "data": [
  ["EVKTCTWPK", 25.2],
  ["GTSGSPIINR", 13.8],
  ["EATQLATLR", 15.9]
]}

Now look at this entry.
Give a short answer stating reported Kd for MSTYGWNIVK . 6.17

====

Kindly supply the reported Kd values for the records listed here.
Target: HLA-A*02:03
Assay: IEDB peptide-MHC binding, purified MHC/direct/fluorescence; filed as Kd, often an IC50 or EC50 that approximates it; bounds were set here for any values at or beyond the usual limits of such assays
Details: source organism: Zaire ebolavirus

The following sequences each have a reported value; give each one's Kd.
1. FLILPQAKK
2. EAEKQLQQY

1: ≥ 20 µM; 2: ≥ 20 µM

====

Target: HLA-B*35:01
Test: IEDB peptide-MHC binding, purified MHC/competitive/radioactivity; filed as Kd, often an IC50 or EC50 that approximates it; bounds were set here for any values at or beyond the usual limits of such assays
Settings: source organism: Dengue virus 3 Martinique/1243/1999
Measurement Name: Kd (µM)
Answers are plain numbers, in µM.

Give a short answer stating reported Kd for WHYDDENPY . 2.62

====

Kindly supply the reported pKd values for the records listed here.
Target: HLA-A*26:01
Experiment: IEDB peptide-MHC binding, purified MHC/competitive/radioactivity; filed as Kd, often an IC50 or EC50 that approximates it; bounds were set here for any values at or beyond the usual limits of such assays
Details: source organism: SARS coronavirus Tor2
Numbers only, as −log10 of the molar value.

Please review the entries below; each comes with its answer.
{"columns": ["Primary Sequence", "pKd"],
 "data": [
  ["ISAGFSLWIY", 5.96],
  ["DYLVSTQEF", 4.84],
  ["TTTGIGYQPY", 7.25],
  ["ETLLPLTQY", 7.36],
  ["FIAQSKGLY", 7.05]
]}

The following sequences each have a reported value; give each one's pKd.
1. YSELRPDTRY
2. RMYIFFASF
3. MSFLEKDAPY
4. FYLYLTFYF
5. NSGPDDQIGY

[4.92, 5.15, 6.58, 5.69, 5.07]

====

Target: HLA-A*01:01
Test: IEDB peptide-MHC binding, purified MHC/direct/fluorescence; filed as Kd, often an IC50 or EC50 that approximates it; bounds were set here for any values at or beyond the usual limits of such assays
Details: source organism: Escherichia coli
Measurement Name: Kd (µM)
Give bare numbers, in µM.

Give a short answer stating reported Kd for SSMNSDAAY . 0.171

====

Kindly supply the reported Kd values for the records listed here.
Biological target: HLA-A*68:02
Test: IEDB peptide-MHC binding, purified MHC/competitive/radioactivity; filed as Kd, often an IC50 or EC50 that approximates it; bounds were set here for any values at or beyond the usual limits of such assays
Details: source organism: Vaccinia virus WR

Please review the entries below; each comes with its answer.
{"columns": ["Primary Sequence", "Measurement Name", "Result"],
 "data": [
  ["KVFSFWLLCK", "Kd", "≥ 49.4 µM"],
  ["MMLVPLITV", "Kd", "5.16 µM"]
]}

Give a short answer stating reported Kd for TFMIITSTK . ≥ 76.9 µM

====

Target: HLA-A*03:01
Test: IEDB peptide-MHC binding, purified MHC/competitive/fluorescence; bounds were set here for any values at or beyond the usual limits of such assays
Conditions: source organism: Vaccinia virus Copenhagen
pIC50: −log10 of the molar value.
Measurement Name: pIC50

Recall the reported pIC50 of VYGNIKHKE on HLA-A*03:01 and write it down. ≤ 3.80

====

Biological target: HLA-B*57:01
Assay: IEDB peptide-MHC binding, purified MHC/competitive/radioactivity; filed as Kd, often an IC50 or EC50 that approximates it; bounds were set here for any values at or beyond the usual limits of such assays
Details: source organism: Dengue virus 2 Jamaica/1409/1983
pKd: −log10 of the molar value.
Is pKd at least 6? Then Met. If not, Not met.

Record excerpt, results attached:
{"columns": ["Primary Sequence", "Answer Label"],
 "data": [
  ["FASALTALND", "Met"],
  ["GTSGSPIVDR", "Not met"],
  ["VTRLENLMW", "Met"]
]}

Can ASGKLITEW be said to have pKd at or above 6? Met

Can ATGPISTLW be said to have pKd at or above 6? Met
